All figures here come from patent US20100093702A1.

molecular target: human A2a adenosine receptor (Homo sapiens); experiment: Ligand Binding Assay for Adenosine A2a Receptor (A2A-B); conditions: HEK293 plasma membrane, radioligand [3H]CGS21680
Sequence (P29274 whole entry): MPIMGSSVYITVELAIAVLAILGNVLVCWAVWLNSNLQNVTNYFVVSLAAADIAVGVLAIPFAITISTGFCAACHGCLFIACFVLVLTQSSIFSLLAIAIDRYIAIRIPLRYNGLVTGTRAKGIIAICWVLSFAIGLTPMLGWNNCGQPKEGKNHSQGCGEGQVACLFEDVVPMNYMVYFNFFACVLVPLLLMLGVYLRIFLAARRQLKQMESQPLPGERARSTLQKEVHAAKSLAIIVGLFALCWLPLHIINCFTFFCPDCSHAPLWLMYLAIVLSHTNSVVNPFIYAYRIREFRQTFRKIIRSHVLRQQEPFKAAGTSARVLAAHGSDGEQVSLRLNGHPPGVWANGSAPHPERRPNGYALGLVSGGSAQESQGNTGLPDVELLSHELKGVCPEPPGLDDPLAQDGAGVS
pKi: −log10 of the molar value. Counter-ions that a name gives are not always drawn.
Tag: y if measured pKi is not below 7, n if it is.

Dear colleague, could you confirm whether Cc1ccc(-c2nc(N)c3cc(CN4CCN(C)CC4)sc3n2)o1 has pKi at or above 7?
n

Same read-out for Cc1ccc(-c2nc(N)c3cc(CN4CCCCC4)sc3n2)o1 ?
y

Check N#Cc1cccc(-c2nc(N)c3cc(CN4CCSCC4)sc3n2)c1 too.
n

Now try Nc1nc(-c2ccc(Cl)o2)nc2sc(CN3CCCCCC3)cc12 .
y

Next entry: Nc1nc(-c2cocn2)nc2sc(CN3CC=CCC3)cc12
n

Entry Nc1nc(-c2cocn2)nc2sc(CN3CC=CC3)cc12 please
n

Next molecule: Nc1nc(-c2ccco2)nc2sc(CN3CCCC(F)(F)C3)cc12
y

CC(C)c1ccccc1-c1nc(N)c2cc(CN3CCC(F)CC3)sc2n1 ?
n

Ok, now Nc1nc(-c2ccc(Cl)o2)nc2sc(CN3CC=CCC3)cc12
y

Entry to check: Nc1nc(-c2ccco2)nc2sc(CN3CCC(F)CC3)cc12 [Example 92, Hydrochloride]
y

Quick one: N#Cc1cccc(-c2nc(N)c3cc(CN4CCC(F)CC4)sc3n2)c1
n

Next molecule: Nc1nc(-c2ccco2)nc2sc(CNC34CC5CC(CC(C5)C3)C4)cc12
y

Proceed to Nc1nc(-c2ccco2)nc2sc(CN3CC[C@H](F)C3)cc12
y

Entry Nc1nc(-c2ccc(Br)o2)nc2sc(CN3CCOCC3)cc12 please
n

Do the same for Cn1cccc1-c1nc(N)c2cc(CN3CCC(F)CC3)sc2n1 please
n

How about this molecule: Nc1nc(-c2ccco2)nc2sc(CN3CCC(=O)CC3)cc12
n

Check Cc1ccc(-c2nc(N)c3cc(CN4CCC(O)C4)sc3n2)o1 (stereo not shown) too.
n
